Target: Aromatase (Homo sapiens)
Sequence (P11511 whole entry): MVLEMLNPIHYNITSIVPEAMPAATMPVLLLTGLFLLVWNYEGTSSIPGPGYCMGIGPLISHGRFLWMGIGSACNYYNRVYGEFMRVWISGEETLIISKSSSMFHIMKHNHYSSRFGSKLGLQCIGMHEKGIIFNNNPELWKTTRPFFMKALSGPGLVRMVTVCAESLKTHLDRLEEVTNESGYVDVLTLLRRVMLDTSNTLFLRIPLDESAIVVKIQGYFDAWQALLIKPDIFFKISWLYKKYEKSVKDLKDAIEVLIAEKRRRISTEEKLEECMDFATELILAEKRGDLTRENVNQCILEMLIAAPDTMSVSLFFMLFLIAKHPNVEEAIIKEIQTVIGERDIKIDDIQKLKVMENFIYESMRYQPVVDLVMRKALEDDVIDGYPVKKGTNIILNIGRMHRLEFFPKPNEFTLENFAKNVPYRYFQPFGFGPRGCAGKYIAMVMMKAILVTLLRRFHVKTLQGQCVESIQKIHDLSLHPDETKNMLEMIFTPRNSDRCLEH
Test: Inhibition of human recombinant aromatase at 3 uM after 30 mins relative to control
Settings: 0.5 h

[
  {
    "compound": "COc1cc2c(cc1C(C)C)C(=O)C[C@H]1C(C)(C)CCC[C@]21C",
    "inhibition at 3 µM [%]": 6.7
  },
  {
    "compound": "COc1cc2c(cc1C(C)C)CC[C@@H]1C(C)(C)CCC[C@]21C",
    "inhibition at 3 µM [%]": 18.4
  },
  {
    "compound": "CC(C)c1cc(C=O)c([C@@]2(C)CCCC(C)(C)[C@@H]2C=O)cc1O",
    "inhibition at 3 µM [%]": 3.3
  },
  {
    "compound": "CC(=O)N1CCN(c2ccc(OC[C@H]3CO[C@](Cn4ccnc4)(c4ccc(Cl)cc4Cl)O3)cc2)CC1 [KETOCONAZOLE]",
    "inhibition at 3 µM [%]": 87.5
  },
  {
    "compound": "COc1cc2c(cc1C(C)C)C=C[C@@H]1C(C)(C)CCC[C@]21C",
    "inhibition at 3 µM [%]": 18.6
  },
  {
    "compound": "N#Cc1ccc(C(c2ccc(C#N)cc2)n2cncn2)cc1 [LETROZOLE]",
    "inhibition at 3 µM [%]": 83.8
  },
  {
    "compound": "COc1cc2c(cc1C(C)C)C(=O)C[C@@H]1C(C)(C)CCC[C@]21C",
    "inhibition at 3 µM [%]": 23.9
  },
  {
    "compound": "CC(C)c1cc(C=O)c2c(c1O)[C@H](O)[C@H]1C(C)(C)CCC[C@]21C [STANDISHINAL]",
    "inhibition at 3 µM [%]": 6.7
  },
  {
    "compound": "CC(C)c1cc(C=O)c([C@@]2(C)CCCC(C)(C)[C@H]2C=O)cc1O",
    "inhibition at 3 µM [%]": 24.9
  },
  {
    "compound": "COc1cc2c(cc1C(C)C)CC[C@H]1C(C)(C)CCC[C@]21C",
    "inhibition at 3 µM [%]": 4.1
  }
]
